System: MDA-MB-468 breast
Assay: NCI tumour cell line growth inhibition, 384-well format; in the data active = GI50 below about 0.43 µM; inactive = the rest
// one of label 1 (active), label 0 (inactive), no free text

Here's what some known entries look like.
molecule: O=c1ccn(C2OC(CO)C(O)C2F)c(=O)[nH]1 (centres undefined)
group label: label 0
--
molecule: CN[C@@H](C)C(=O)N[C@H](C(=O)N1CCC[C@H]1C(=O)N[C@H]1c2ccccc2C[C@H]1OCC#CC#CCO[C@@H]1Cc2ccccc2[C@@H]1NC(=O)[C@@H]1CCCN1C(=O)[C@@H](NC(=O)[C@H](C)NC)C1CCCCC1)C1CCCCC1
group label: label 1
--
molecule: CCOC(=O)c1cc(/C=C/c2ccc(Cl)cc2Cl)on1
group label: label 0

Please turn your attention to the following entry.
In this assay, the call recorded for `CN(C)CCN(C)CC(C)(C)C(=O)/C=C/c1ccc(Cl)c(Cl)c1` was what? label 0

----------
Test system: SW-620 colon
Experiment: NCI tumour cell line growth inhibition, 384-well format
Item-by-item account of TGI

molecule: CCOC(=O)c1cc(/C=C/c2ccc(Cl)cc2Cl)on1
assayed target: SW-620 colon
TGI: 3.02 µM
//
molecule: CN[C@@H](C)C(=O)N[C@H](C(=O)N1CCC[C@H]1C(=O)N[C@H]1c2ccccc2C[C@H]1OCC#CC#CCO[C@@H]1Cc2ccccc2[C@@H]1NC(=O)[C@@H]1CCCN1C(=O)[C@@H](NC(=O)[C@H](C)NC)C1CCCCC1)C1CCCCC1
assayed target: SW-620 colon
TGI: 4.3 µM
//
molecule: CO[C@@H]1/C=C\C=C(/C)C(=O)NC2=CC(=O)C(NCCN(C)C)=C(C[C@@H](C)C[C@@H](OC)[C@@H](O)[C@H](C)/C=C(\C)[C@H]1OC(N)=O)C2=O
assayed target: SW-620 colon
TGI: 0.0781 µM
//
molecule: O=c1ccn(C2OC(CO)C(O)C2F)c(=O)[nH]1 (stereo not given)
assayed target: SW-620 colon
TGI: > 100 µM

Here is the next item to consider.
Summary for this molecule, `CN(C)CCN(C)CC(C)(C)C(=O)/C=C/c1ccc(Cl)c(Cl)c1` : TGI is 2.65 µM

----------
Test system: HOP-62 NSCLC
Assay: NCI tumour cell line growth inhibition, 384-well format
Item-by-item account of GI50

compound: O=c1ccn(C2OC(CO)C(O)C2F)c(=O)[nH]1 (centres undefined)
assayed target: HOP-62 NSCLC
GI50: > 100000 nM
--
compound: CCOC(=O)c1cc(/C=C/c2ccc(Cl)cc2Cl)on1
assayed target: HOP-62 NSCLC
GI50: 469 nM
--
compound: CC[C@H](NC(=O)[C@H](C)NC)C(=O)N1C[C@@H](O)C[C@H]1Cc1c(-c2[nH]c3cc(F)ccc3c2C[C@@H]2C[C@H](O)CN2C(=O)[C@H](CC)NC(=O)[C@H](C)NC)[nH]c2cc(F)ccc12
assayed target: HOP-62 NSCLC
GI50: 555 nM

Here is the next item to consider.
Summary for this compound, CCN(CC)CCCC(C)Nc1c2ccc(Cl)cc2nc2ccc(OC)cc12 (centres undefined) : GI50 is 1100 nM

----------
System: M14 melanoma
Assay: NCI tumour cell line growth inhibition, 384-well format; in the data active means GI50 below about 0.43 µM; inactive means the rest
// one of t for active, f for inactive, no free text

Here's what some known entries look like.
compound: CN(C)CCN(C)CC(C)(C)C(=O)/C=C/c1ccc(Cl)c(Cl)c1
group label: f
--
compound: CCN(CC)CCCC(C)Nc1c2ccc(Cl)cc2nc2ccc(OC)cc12 (centres undefined)
group label: f
--
compound: CC[C@H](NC(=O)[C@H](C)NC)C(=O)N1C[C@@H](O)C[C@H]1Cc1c(-c2[nH]c3cc(F)ccc3c2C[C@@H]2C[C@H](O)CN2C(=O)[C@H](CC)NC(=O)[C@H](C)NC)[nH]c2cc(F)ccc12
group label: f

In this assay, the call recorded for `CO[C@@H]1/C=C\C=C(/C)C(=O)NC2=CC(=O)C(NCCN(C)C)=C(C[C@@H](C)C[C@@H](OC)[C@@H](O)[C@H](C)/C=C(\C)[C@H]1OC(N)=O)C2=O` was what? t

Value source: PubChem BioAssay (NCI)
